testSystem: UniProt P56817
Sequence (P56817 46-501): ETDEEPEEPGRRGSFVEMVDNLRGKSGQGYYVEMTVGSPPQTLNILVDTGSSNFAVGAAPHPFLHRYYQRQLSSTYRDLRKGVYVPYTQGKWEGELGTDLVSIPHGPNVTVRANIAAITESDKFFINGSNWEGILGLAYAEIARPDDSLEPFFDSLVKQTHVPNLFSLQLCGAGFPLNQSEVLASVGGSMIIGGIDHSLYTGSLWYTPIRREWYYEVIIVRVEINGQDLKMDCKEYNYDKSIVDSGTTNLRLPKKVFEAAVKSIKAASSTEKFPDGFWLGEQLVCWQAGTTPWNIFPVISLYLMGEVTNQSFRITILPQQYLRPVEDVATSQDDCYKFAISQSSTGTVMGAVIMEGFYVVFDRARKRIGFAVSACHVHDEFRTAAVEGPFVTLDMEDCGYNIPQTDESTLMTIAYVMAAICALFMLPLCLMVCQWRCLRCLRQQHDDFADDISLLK
procedureDetails: BACE1 biochemical FRET based assay (Test Example 2-1)
assayContext: BACE2 IC50 over BACE1 IC50 (FRET)
Measured selectivity accompanies every entry in the list below.
reportedMetric: selectivity

- compound: "Cn1cc([C@@H]2OC[C@H]3OC(N)=N[C@](C)(c4cc(NC(=O)c5cc6c(cn5)OCCO6)ccc4F)[C@H]32)cn1 [Compound I-032]"
  testSystem: "UniProt P56817"
  observedMeasurement: 112
- compound: "C[C@H]1OC[C@H]2[C@@H]1OC(N)=N[C@]2(CF)c1cc(NC(=O)c2cc3c(cn2)OC(F)(F)CO3)ccc1F [Compound I-049]"
  testSystem: "UniProt P56817"
  observedMeasurement: 136
- compound: "CN1C(N)=N[C@@]2(c3cc(NC(=O)c4cc5c(cn4)OC(F)(F)CO5)ccc3F)CCC[C@H]2S1(=O)=O [Compound I-009]"
  testSystem: "UniProt P56817"
  observedMeasurement: 21.5

---

testSystem: BACE2 (Homo sapiens)
Sequence (Q9Y5Z0 63-518): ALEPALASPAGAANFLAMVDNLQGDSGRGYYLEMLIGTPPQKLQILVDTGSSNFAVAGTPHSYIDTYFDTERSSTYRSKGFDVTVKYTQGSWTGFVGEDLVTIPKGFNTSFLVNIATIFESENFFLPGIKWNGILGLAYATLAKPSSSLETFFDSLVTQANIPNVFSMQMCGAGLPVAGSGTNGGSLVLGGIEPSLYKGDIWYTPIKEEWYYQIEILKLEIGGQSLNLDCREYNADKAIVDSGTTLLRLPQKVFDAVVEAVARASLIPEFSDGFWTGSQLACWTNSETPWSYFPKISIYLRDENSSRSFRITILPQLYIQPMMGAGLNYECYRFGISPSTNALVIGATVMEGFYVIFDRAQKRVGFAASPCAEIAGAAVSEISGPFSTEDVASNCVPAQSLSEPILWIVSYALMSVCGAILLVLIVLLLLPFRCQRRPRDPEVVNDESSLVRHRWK
procedureDetails: BACE2 biochemical FRET based assay (Test Example 2-1 (2))
assayContext: 0.4 μg/mL BACE2, 450 minutes, Citrate buffer pH 5.0
pIC50: −log10 of the molar value.
Response field class: enum, chosen by comparing pIC50 against bottom: < 6; middle: ≥ 6 and < 7; top: ≥ 7

- molecule: "Cn1cc([C@@H]2OC[C@H]3OC(N)=N[C@](C)(c4cc(NC(=O)c5cc6c(cn5)OCCO6)ccc4F)[C@H]32)cn1"
  groupLabel: "bottom"
- molecule: "C[C@@H]1COc2cnc(C(=O)Nc3ccc(F)c([C@]4(C)CS(=O)(=O)N(C)C(N)=N4)c3)cc2O1"
  groupLabel: "middle"
- molecule: "CN1C(N)=N[C@](C)(c2cc(NC(=O)c3cc4c(cn3)OCC(F)(F)O4)ccc2F)CS1(=O)=O"
  groupLabel: "middle"
- molecule: "NC1=N[C@](CF)(c2cc(NC(=O)c3cc4c(cn3)OCCO4)ccc2F)[C@H]2COCC[C@H]2O1"
  groupLabel: "bottom"
- molecule: "C[C@H]1OC[C@H]2[C@@H]1OC(N)=N[C@]2(CF)c1cc(NC(=O)c2cc3c(cn2)OC(F)(F)CO3)ccc1F"
  groupLabel: "middle"
- molecule: "CN1C(N)=N[C@](C)(c2cc(NC(=O)c3cc4c(cn3)OC(F)(F)O4)ccc2F)CS1(=O)=O"
  groupLabel: "top"
- molecule: "CN1C(N)=N[C@@]2(c3cc(NC(=O)c4cc5c(cn4)OC(F)(F)CO5)ccc3F)CCC[C@H]2S1(=O)=O"
  groupLabel: "top"
- molecule: "NC1=N[C@](CF)(c2cc(NC(=O)c3cc4c(cn3)OC(F)(F)CO4)ccc2F)[C@H]2CCOC[C@H]2O1"
  groupLabel: "bottom"
